system-under-test: LYP/PTPN22 (Homo sapiens, UniProt Q9Y2R2)
Construct: catalytic domains of LYP (aa 2-309) and PTP-PEST (aa 2-323, PEST); 6xHis (N, cleaved yes); made in house; host or cells: E. coli BL21
Sequence (Q9Y2R2 2-309): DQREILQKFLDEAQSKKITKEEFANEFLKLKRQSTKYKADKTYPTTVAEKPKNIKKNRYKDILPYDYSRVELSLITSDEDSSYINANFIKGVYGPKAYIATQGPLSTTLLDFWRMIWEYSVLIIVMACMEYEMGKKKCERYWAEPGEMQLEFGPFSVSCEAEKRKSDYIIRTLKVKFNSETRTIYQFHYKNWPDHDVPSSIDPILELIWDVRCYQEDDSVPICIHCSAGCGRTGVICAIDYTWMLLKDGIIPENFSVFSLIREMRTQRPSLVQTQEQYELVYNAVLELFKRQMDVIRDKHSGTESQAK
assay-method-text: biochemical
condition-parameters: LYP IC50, Table IV, analogues of E3P13
pIC50: −log10 of the molar value.
readout-type: pIC50

Below: 2 compounds and their reported pIC50.
Incoming: GET /values?readout=pIC50&item= "COc1ccc2cc([C@@H](c3nnnn3C3CCCC3)N3CCCCC3)c(=O)[nH]c2c1"
Outgoing: < 4.40

Incoming: Quick one: pIC50 for "Cc1cc(C)c2cc([C@H](c3nnnn3C3CCCC3)N3CCC(C)CC3)c(=O)[nH]c2c1" ?
Outgoing: < 4.40

Could you now consider this next compound?
Incoming: Using the record for "Cc1ccc2[nH]c(=O)c([C@@H](c3nnnn3C3CCCC3)N3CCCC3)cc2c1" , report its pIC50.
Outgoing: < 4.40
